Kindly supply the reported fractional inhibitory concentration index (FICI) values for the records listed here.
# System: Cryptococcus neoformans
# testDescription: Ratio of compound MIC for Cryptococcus neoformans F10 in presence of amphotericin B to compound MIC for Cryptococcus neoformans F10 in absence of amphotericin B by checkerboard microtiter test
# Format: functional
Simply state the number, no unit and no words.

INPUT: Lab request: please report fractional inhibitory concentration index (FICI) under test system Cryptococcus neoformans for COc1ccc(-c2csc(N/N=C/C3CCCCC3)n2)cc1
OUTPUT: 1.46

INPUT: Now try C(=N\Nc1nc(-c2ccccc2)cs1)/C1CCCCC1 .
OUTPUT: 2.62

INPUT: Now try COc1ccc(-c2csc(N/N=C(\C)CCO)n2)cc1 .
OUTPUT: 2.47

INPUT: Now try c1ccc(-c2csc(NN=C3CCCC3)n2)cc1 .
OUTPUT: 2.58
